Some molecules, each annotated with its measured inhibition.
Assay target: Proto-oncogene tyrosine-protein kinase Src (Homo sapiens)
Method: Inhibition of Src at 10 uM
Write down the value, and be sure its unit follows.

{"Compound structure": "CC(C)(C)OC(=O)NCC(=O)Oc1c(-c2ccc(O)c(O)c2)oc2cc(O)cc(O)c2c1=O", "inhibition": "76.2%"}

Then this molecule:
## Task I have this molecule here, `C[C@@H](O)[C@H](NC(=O)OC(C)(C)C)C(=O)Oc1c(-c2ccc(O)c(O)c2)oc2cc(O)cc(O)c2c1=O` , and I need its recorded inhibition.
## Result 76.1%

----------
Some compounds, each annotated with its measured inhibition.
Assay target: Epidermal growth factor receptor (Homo sapiens) (UniProt P00533)
Sequence (P00533 whole entry): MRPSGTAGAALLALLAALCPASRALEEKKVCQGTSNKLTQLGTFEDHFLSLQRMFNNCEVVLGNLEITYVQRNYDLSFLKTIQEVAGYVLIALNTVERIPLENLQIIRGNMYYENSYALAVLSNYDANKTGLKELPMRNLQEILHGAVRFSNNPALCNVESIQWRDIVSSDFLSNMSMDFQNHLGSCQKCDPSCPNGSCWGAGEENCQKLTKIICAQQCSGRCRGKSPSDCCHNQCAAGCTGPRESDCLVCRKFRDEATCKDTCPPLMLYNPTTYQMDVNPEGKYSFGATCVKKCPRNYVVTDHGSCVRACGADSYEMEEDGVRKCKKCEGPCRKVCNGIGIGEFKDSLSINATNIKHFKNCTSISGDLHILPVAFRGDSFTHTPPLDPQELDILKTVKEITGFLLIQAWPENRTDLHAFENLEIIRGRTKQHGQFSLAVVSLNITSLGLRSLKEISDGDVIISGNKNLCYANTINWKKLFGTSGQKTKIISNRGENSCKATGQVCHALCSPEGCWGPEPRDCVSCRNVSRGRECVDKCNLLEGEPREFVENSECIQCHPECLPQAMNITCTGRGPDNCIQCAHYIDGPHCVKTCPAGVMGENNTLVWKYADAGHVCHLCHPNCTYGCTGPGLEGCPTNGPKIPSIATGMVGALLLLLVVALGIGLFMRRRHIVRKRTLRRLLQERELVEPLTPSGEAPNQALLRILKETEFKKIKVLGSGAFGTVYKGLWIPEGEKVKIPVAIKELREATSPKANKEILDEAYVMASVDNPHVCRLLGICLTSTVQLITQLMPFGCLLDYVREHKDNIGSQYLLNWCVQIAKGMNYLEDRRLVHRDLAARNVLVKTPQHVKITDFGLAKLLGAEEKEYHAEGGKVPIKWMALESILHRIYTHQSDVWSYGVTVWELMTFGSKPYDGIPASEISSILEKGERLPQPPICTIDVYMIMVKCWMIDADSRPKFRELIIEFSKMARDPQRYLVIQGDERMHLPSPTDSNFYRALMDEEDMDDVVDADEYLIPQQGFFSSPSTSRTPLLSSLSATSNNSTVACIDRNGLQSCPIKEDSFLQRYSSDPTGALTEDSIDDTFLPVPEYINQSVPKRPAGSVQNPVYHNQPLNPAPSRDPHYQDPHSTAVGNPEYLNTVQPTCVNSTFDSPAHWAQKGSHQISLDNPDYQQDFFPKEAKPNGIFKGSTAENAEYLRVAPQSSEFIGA
Method: Inhibition of EGFR at 10 uM
Form entry: value (%) — number only.

{"Compound structure": "CC(=O)N[C@@H](CC(C)C)C(=O)Oc1c(-c2ccc(O)c(O)c2)oc2cc(O)cc(O)c2c1=O", "inhibition, %": 25.9}

## Task I have this compound here, `CC(C)(C)OC(=O)N[C@@H](Cc1c[nH]c2ccccc12)C(=O)Oc1c(-c2ccc(O)c(O)c2)oc2cc(O)cc(O)c2c1=O` , and I need its recorded inhibition.
## Result 15.6

## Task I have this compound here, `CC(C)(C)OC(=O)N[C@@H](Cc1ccccc1)C(=O)Oc1c(-c2ccc(O)c(O)c2)oc2cc(O)cc(O)c2c1=O` , and I need its recorded inhibition.
## Result 35.9

## Task I have this compound here, `CC(C)(C)OC(=O)N1CCC[C@H]1C(=O)Oc1c(-c2ccc(O)c(O)c2)oc2cc(O)cc(O)c2c1=O` , and I need its recorded inhibition.
## Result 19.3

## Task I have this compound here, `COc1cc2ncnc(Nc3ccc(OCc4ccccc4)cc3)c2cc1OC` , and I need its recorded inhibition.
## Result 97.2

## Task I have this compound here, `C[C@H](O)[C@@H](NC(=O)OC(C)(C)C)C(=O)Oc1c(-c2ccc(O)c(O)c2)oc2cc(O)cc(O)c2c1=O` , and I need its recorded inhibition.
## Result 34.6

## Task I have this compound here, `C[C@H](NC(=O)OC(C)(C)C)C(=O)Oc1c(-c2ccc(O)c(O)c2)oc2cc(O)cc(O)c2c1=O` , and I need its recorded inhibition.
## Result 35.9

## Task I have this compound here, `CC(C)(C)OC(=O)N[C@@H](CC(N)=O)C(=O)Oc1c(-c2ccc(O)c(O)c2)oc2cc(O)cc(O)c2c1=O` , and I need its recorded inhibition.
## Result 23.8

----------
Some compounds, each annotated with its measured inhibition.
Assay target: Epidermal growth factor receptor (Homo sapiens)
Method: Inhibition of EGFR at 10 uM
Form entry: value (%) — number only.

Solved cases below.
{"Compound structure": "CC(=O)N1CCC[C@H]1C(=O)Oc1c(-c2ccc(O)c(O)c2)oc2cc(O)cc(O)c2c1=O", "Quantity unit": "%", "inhibition": 21}
{"Compound structure": "CC(C)[C@H](NC(=O)OC(C)(C)C)C(=O)Oc1c(-c2ccc(O)c(O)c2)oc2cc(O)cc(O)c2c1=O", "Quantity unit": "%", "inhibition": 21}
{"Compound structure": "CC(C)(C)OC(=O)NCC(=O)Oc1c(-c2ccc(O)c(O)c2)oc2cc(O)cc(O)c2c1=O", "Quantity unit": "%", "inhibition": 43.2}

Then this compound:
## Task I have this compound here, `CC(C)C[C@@H](NC(=O)OC(C)(C)C)C(=O)Oc1c(-c2ccc(O)c(O)c2)oc2cc(O)cc(O)c2c1=O` , and I need its recorded inhibition.
## Result 29.2

----------
Some compounds, each annotated with its measured inhibition.
Assay target: Proto-oncogene tyrosine-protein kinase Src (Homo sapiens)
Method: Inhibition of Src at 10 uM
Form entry: value (%) — number only.

Solved cases below.
{"Compound structure": "C[C@H](O)[C@@H](NC(=O)OC(C)(C)C)C(=O)Oc1c(-c2ccc(O)c(O)c2)oc2cc(O)cc(O)c2c1=O", "Quantity unit": "%", "inhibition": 71}
{"Compound structure": "CC(C)(C)OC(=O)N[C@@H](Cc1c[nH]c2ccccc12)C(=O)Oc1c(-c2ccc(O)c(O)c2)oc2cc(O)cc(O)c2c1=O", "Quantity unit": "%", "inhibition": 44.4}
{"Compound structure": "C[C@H](NC(=O)OC(C)(C)C)C(=O)Oc1c(-c2ccc(O)c(O)c2)oc2cc(O)cc(O)c2c1=O", "Quantity unit": "%", "inhibition": 51.4}

## Task I have this compound here, `CC(=O)N1CCC[C@H]1C(=O)Oc1c(-c2ccc(O)c(O)c2)oc2cc(O)cc(O)c2c1=O` , and I need its recorded inhibition.
## Result 24.3

----------
Assay target: Proto-oncogene tyrosine-protein kinase Src (Homo sapiens)
Method: Inhibition of Src at 10 uM
Metric: inhibition (%)
Form entry: value (%) — number only.

Solved cases below.
{"Compound structure": "CC(=O)N[C@@H](CC(C)C)C(=O)Oc1c(-c2ccc(O)c(O)c2)oc2cc(O)cc(O)c2c1=O", "Metric": "inhibition", "Value reported": 39}
{"Compound structure": "CC(C)[C@H](NC(=O)OC(C)(C)C)C(=O)Oc1c(-c2ccc(O)c(O)c2)oc2cc(O)cc(O)c2c1=O", "Metric": "inhibition", "Value reported": 52.5}
{"Compound structure": "CC(C)C[C@H](NC(=O)OC(C)(C)C)C(=O)Oc1c(-c2ccc(O)c(O)c2)oc2cc(O)cc(O)c2c1=O", "Metric": "inhibition", "Value reported": 55.4}

Then this compound:
## Task I have this compound here, `CC(C)(C)OC(=O)N1CCC[C@H]1C(=O)Oc1c(-c2ccc(O)c(O)c2)oc2cc(O)cc(O)c2c1=O` , and I need its recorded inhibition.
## Result 27.7

----------
Some compounds, each annotated with its measured IC50.
Assay target: Proto-oncogene tyrosine-protein kinase Src (Homo sapiens, UniProt P12931)
Sequence (P12931 2-536 limits assumed): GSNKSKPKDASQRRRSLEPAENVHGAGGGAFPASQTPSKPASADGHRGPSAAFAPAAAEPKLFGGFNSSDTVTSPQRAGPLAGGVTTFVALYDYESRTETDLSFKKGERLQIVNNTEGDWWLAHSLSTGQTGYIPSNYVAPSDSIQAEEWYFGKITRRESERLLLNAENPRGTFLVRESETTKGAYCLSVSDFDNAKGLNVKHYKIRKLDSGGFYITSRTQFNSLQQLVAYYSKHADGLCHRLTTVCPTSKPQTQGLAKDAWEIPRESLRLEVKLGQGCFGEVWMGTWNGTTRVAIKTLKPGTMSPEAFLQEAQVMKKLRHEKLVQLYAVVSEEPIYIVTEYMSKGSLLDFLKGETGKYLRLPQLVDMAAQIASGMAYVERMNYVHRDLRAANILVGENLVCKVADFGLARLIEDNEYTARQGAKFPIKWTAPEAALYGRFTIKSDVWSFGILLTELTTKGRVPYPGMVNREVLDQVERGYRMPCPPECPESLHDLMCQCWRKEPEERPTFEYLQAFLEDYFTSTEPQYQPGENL
Method: Inhibition of Src
Form entry: value (µM) — number only.

Solved cases below.
{"Compound": "C[C@@H](O)[C@H](NC(=O)OC(C)(C)C)C(=O)Oc1c(-c2ccc(O)c(O)c2)oc2cc(O)cc(O)c2c1=O", "IC50 (µM)": 3.5}
{"Compound": "CC(=O)N[C@@H](Cc1ccccc1)C(=O)Oc1c(-c2ccc(O)c(O)c2)oc2cc(O)cc(O)c2c1=O", "IC50 (µM)": 5.9}
{"Compound": "C[C@H](NC(=O)OC(C)(C)C)C(=O)Oc1c(-c2ccc(O)c(O)c2)oc2cc(O)cc(O)c2c1=O", "IC50 (µM)": 6.5}

Then this compound:
## Task I have this compound here, O=c1c(O)c(-c2ccc(O)c(O)c2)oc2cc(O)cc(O)c12 [QUERCETIN] , and I need its recorded IC50.
## Result 15

----------
Some compounds, each annotated with its measured inhibition.
Assay target: UniProt:P12931
Method: Inhibition of Src at 10 uM
Form entry: value (%) — number only.

Solved cases below.
{"Compound structure": "CC(C)[C@@H](NC(=O)OC(C)(C)C)C(=O)Oc1c(-c2ccc(O)c(O)c2)oc2cc(O)cc(O)c2c1=O", "Metric": "inhibition", "Quantity unit": "%", "Value reported": 40.7}
{"Compound structure": "CC(C)(C)n1nc(-c2ccc(Cl)cc2)c2c(N)ncnc21", "Metric": "inhibition", "Quantity unit": "%", "Value reported": 99}
{"Compound structure": "CC(C)(C)OC(=O)N[C@@H](CC(N)=O)C(=O)Oc1c(-c2ccc(O)c(O)c2)oc2cc(O)cc(O)c2c1=O", "Metric": "inhibition", "Quantity unit": "%", "Value reported": 50.8}

## Task What is its inhibition for UniProt:P12931? Entry: `CC(=O)N[C@@H](Cc1ccccc1)C(=O)Oc1c(-c2ccc(O)c(O)c2)oc2cc(O)cc(O)c2c1=O`
## Result 60.5

## Task What is its inhibition for UniProt:P12931? Entry: `CC(C)C[C@@H](NC(=O)OC(C)(C)C)C(=O)Oc1c(-c2ccc(O)c(O)c2)oc2cc(O)cc(O)c2c1=O`
## Result 44.5

## Task What is its inhibition for UniProt:P12931? Entry: `CC(C)(C)OC(=O)N[C@@H](Cc1ccccc1)C(=O)Oc1c(-c2ccc(O)c(O)c2)oc2cc(O)cc(O)c2c1=O`
## Result 40.9

----------
Assay target: Epidermal growth factor receptor (Homo sapiens)
Method: Inhibition of EGFR at 10 uM
Metric: inhibition
Write down the value, and be sure its unit follows.

Solved cases below.
{"Compound structure": "CC(=O)N[C@@H](Cc1ccccc1)C(=O)Oc1c(-c2ccc(O)c(O)c2)oc2cc(O)cc(O)c2c1=O", "inhibition": "20.9%"}
{"Compound structure": "CC(C)[C@@H](NC(=O)OC(C)(C)C)C(=O)Oc1c(-c2ccc(O)c(O)c2)oc2cc(O)cc(O)c2c1=O", "inhibition": "22.3%"}
{"Compound structure": "C[C@@H](O)[C@H](NC(=O)OC(C)(C)C)C(=O)Oc1c(-c2ccc(O)c(O)c2)oc2cc(O)cc(O)c2c1=O", "inhibition": "36.8%"}

Then this compound:
## Task I have this compound here, `CC(C)C[C@H](NC(=O)OC(C)(C)C)C(=O)Oc1c(-c2ccc(O)c(O)c2)oc2cc(O)cc(O)c2c1=O` , and I need its recorded inhibition.
## Result 30.4%
